Provenance of the data: patent US20250171438A1

Some compounds, each annotated with its measured AC50.
biological target: human PAH with the R408W mutation (Homo sapiens, UniProt P00439, R408W); construct: expressed in transfected cells; assay: Cell Based Phenylalanine Flux Assay; conditions: A375 cells expressing human R408W PAH; 24 hrs compound incubation; 13C-Tyrosine by LC-MS; average where tested multiple times; read-out: AC50
Sequence (P00439 whole entry R408W): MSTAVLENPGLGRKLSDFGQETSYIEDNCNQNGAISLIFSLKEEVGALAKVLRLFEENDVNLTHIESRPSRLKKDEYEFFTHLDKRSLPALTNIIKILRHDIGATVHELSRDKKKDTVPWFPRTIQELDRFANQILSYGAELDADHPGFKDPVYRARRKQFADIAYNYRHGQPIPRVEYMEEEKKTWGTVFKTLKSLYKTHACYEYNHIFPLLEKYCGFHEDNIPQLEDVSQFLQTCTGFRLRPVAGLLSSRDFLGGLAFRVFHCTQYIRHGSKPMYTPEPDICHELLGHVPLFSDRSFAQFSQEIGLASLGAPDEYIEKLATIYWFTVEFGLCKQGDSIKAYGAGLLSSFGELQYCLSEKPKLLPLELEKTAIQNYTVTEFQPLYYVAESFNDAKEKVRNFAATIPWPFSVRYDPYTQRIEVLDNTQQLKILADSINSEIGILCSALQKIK

Cc1ocnc1CC(=O)N1CCc2[nH]cnc2[C@@H]1c1nc2ccccc2s1 > 5 µM
O=C(CC1CCC1)N1CCc2[nH]cnc2[C@@H]1c1nc2ccccc2s1 1 to 5 µM
O=C(CC1CC1)N1CCc2[nH]cnc2[C@@H]1c1nc2ccc(Cl)cc2[nH]1 1 to 5 µM
O=C(c1cnc(-c2cnn(CC(F)(F)F)c2)o1)N1CCc2[nH]cnc2[C@H]1c1nc2ccccc2s1 < 0.5 µM

query: Bench note: what AC50 did "O=C(c1cnn2ccccc12)N1CCc2[nH]cnc2[C@H]1c1nc2ccc(Cl)cc2[nH]1" show?
result: 1 to 5 µM
